Catalogue of MBC values
- Tested on: Streptococcus pneumoniae
- protocolDetails: Bactericidal activity against erythromycin-susceptible Streptococcus pneumoniae ATCC49619 pretreated followed by subculture in absence of compound measured after 24 hrs
- Assay type: functional

| mol | MBC, µg/mL |
| --- | --- |
| CC[C@H]1OC(=O)[C@@](C)(F)C(=O)[C@H](C)[C@@H](O[C@@H]2O[C@H](C)C[C@H](N(C)C)[C@H]2O)[C@](C)(OC)C[C@@H](C)/C(=N\OCC#Cc2ccc3[nH]ccc(=O)c3c2)[C@H](C)[C@H]2OC(=O)O[C@@]21C | 0.125 |
| CC[C@H]1OC(=O)[C@@](C)(F)C(=O)[C@H](C)[C@@H](O[C@@H]2O[C@H](C)C[C@H](N(C)C)[C@H]2O)[C@](C)(OC)C[C@@H](C)/C(=N\OC/C=C/c2ccc3ncc(C(=O)O)cc3c2)[C@H](C)[C@H]2OC(=O)O[C@@]21C | 2 |
| CC[C@H]1OC(=O)[C@@](C)(F)C(=O)[C@H](C)[C@@H](O[C@@H]2O[C@H](C)C[C@H](N(C)C)[C@H]2O)[C@](C)(OC)C[C@@H](C)/C(=N\OCC#Cc2cncc(C#N)c2)[C@H](C)[C@H]2OC(=O)O[C@@]21C | 0.125 |
| CC[C@H]1OC(=O)[C@@](C)(F)C(=O)[C@H](C)[C@@H](O[C@@H]2O[C@H](C)C[C@H](N(C)C)[C@H]2O)[C@](C)(OC)C[C@@H](C)/C(=N\OC/C=C/c2cnc3ccccc3c2N)[C@H](C)[C@H]2OC(=O)O[C@@]21C | 0.25 |
